These measurements were taken from the supplement of paper PMC9170038.

Test system: MS2 coat protein
Assay: apparent KD of MS2 coat protein; designed switch direction (-1 OFF switch, 1 ON switch): 1; higher = weaker reporter binding
Settings: input ligand: FMN 200 uM
Exercise: state measured apparent KD of MS2 coat protein for each of the sequences provided.
Give bare numbers, in nM.

Example entries and their recorded answers appear below.
MONOMER_SEQUENCE | apparent KD of MS2 coat protein (nM)
GGACCCUUCGGAGGAUAUUCUCAGUAACAGUAAGAAGAAGGCCGUAAGUCAUACGCGCGUUACAUGAGGAUCACCCAUGUGUGG [Eternabot solution 47] (Eterna round: R96, puzzle: Same State NG 1) | 149
GCGAAGAGGUAAGGAUAUGCAUGGCGGAGACAUGAGGAUCACCCAUGUUGGAGACGAAAUCUAGGGUAGAAGGUACCAGGACGC [AK SSNG2-V2-13] (Eterna round: R96, puzzle: Same State NG 2) | 41.5

Which apparent KD of MS2 coat protein is reported for this sequence? UUAUCUAUCCGAGGAUAUCCAUAUAAUUUACAUGAGGAUCACCCAUGUUAUUGGGAGUUUUUUUAGGAGAAGGCGGAUGUAGAU [JR_SSNG2_Sub052] (Eterna round: R96, puzzle: Same State NG 2)
82.5

---

Test system: MS2 coat protein
Assay: apparent KD of MS2 coat protein; higher = weaker reporter binding
Conditions: Eterna round: R107; input ligand: arginine 13.2 mM
I would appreciate it if you labelled entries 1 when apparent KD of MS2 coat protein is 0.02 µM or higher, otherwise -1.

MONOMER_SEQUENCE | CATEGORY
UGUAUGGACUGAAGGAGCGCCUCAAAAUAACAUGAGGAUCACCCAUGUGGCGAAAGCCAAGGGCAGGUAGGUCGCAGUCCAUACU [ArgBX 4 #StaticStem #MS2Late] | 1
GUCCAAAGGUCGGCCGCCACUGUAGGAUGUGUUCUUUCACAUGAGGAUCACCCAUGUUGUUAUUAUAGGACCGGGAUUGUAGGAC [39MS split4] | -1
AUAUUAGACCUGGAUACCAGCGACAUGAGGAUCACCCAUGUAUGUGCAUCAGCCAUGAUAUGCCCUUGGCAGCCACCGAGGUCGU [YYTMULLIN] | -1
AGUCUUGUAGGAAGGAGCGCAUACUUCACAUGAGGAUCACCCAUGUCAAGACGUGAGUCAGUGCAGGUAGGUCGCCUAACUAAGA [Same State - Arginine B (Freestyle 14)] | -1
ACAUGAGGAUCACCCAUGUUUGUUGUUCCUCGAGGACCGGUACGGCCGCCACUCGAACGAGUGGCACGCGAGUGCGCACUCGCGU [aPa] | -1

Check this sequence for apparent KD of MS2 coat protein at or above 0.02 µM: "UGUAUGGACUGAAGGAGCGGGUAAUAAAUCUGAGGAUCACCCAGGUAAUAGGCGAAAGCCGCCCAGGUAGGUCGCAGUCCAUACU"
-1

Is apparent KD of MS2 coat protein at least 0.02 µM? Consider UCGCCCGGGUCGGCCGCCACUGAGGUGAUAUGACAUGAGGAUCACCCAUGUUGUCAUGUGGAACAUAGGACCGGGACCCGGGCGA [Exclusion - Tryptophan B Attempt #2 (HarryS)]
-1

Confirm if apparent KD of MS2 coat protein reported for the sequence UACUGUCUAACGGCCGCCACUCAGUCUCGGUUGAUUAUCUUAAGUGACAUGAGGAUCACCCAUGUGAGGACCGGGUUGUGCAUAA [theeternabot_exclusion_MS2_Trp_B_40] is 0.02 µM or above.
1

Answer whether apparent KD of MS2 coat protein of GCAAUACAUGAGGAUCACCCAUGUGCAGAUACCAGAGGUGUAUGCCUCCCUUGGCAGCUGCGACGCUCUGGCAUCUUGUGGGAUG [Same State Theophylline A GF19] is greater than or equal to 0.02 µM.
1

Would you say ACAUGAGGAUCACCCAUGUUGAGCACAGAAGGAGCGUGAUUAAGCACAGGUAGGUCGCUGUACUUAUCGAGCGUUAGCUCGAUAC [JR_Nu_SSArginiA_Sub030] shows apparent KD of MS2 coat protein at minimum 0.02 µM?
1

Would you say AGCAACUAGUCGGCCGCCACUCAUAUUACAUGAGGAUCACCCAUGUAUACAUGGUUGUUAUAUUUGAGGACCGGGACAGUUGCAU [JR_SSTryptoB_Sub018] shows apparent KD of MS2 coat protein at minimum 0.02 µM?
1

Is the recorded value of apparent KD of MS2 coat protein equal to or greater than 0.02 µM for this sequence? AUCCAUAGCCGAAGGAGCGCAGUAGGAUGACAUGAGGAUCACCCAUGUGUGUGAUGUGGAUUGCAGGUAGGUCGCGGAGUGGGAU [Exclusion - Arginine B (Freestyle 6)]
1

---

Test system: MS2 coat protein
Experiment: apparent KD of MS2 coat protein; designed switch direction (-1 OFF switch, 1 ON switch): 1; higher = weaker reporter binding
Settings: input ligand: FMN 200 uM
EXPERIMENTAL_READOUT: apparent KD of MS2 coat protein (nM)
One number for each entry, in nM.

MONOMER_SEQUENCE | ASSAY_VALUE
UGCUACUGGGUAGGAUAUUUAGGAUAUGGGAAAGACUAAGUCUGUAGGUCACCUAACCCAGAAGGAGAGAAGGACCAUUCAGCU [pwkr ssNG2 2FMN + F9.33] (Eterna round: R96, puzzle: Same State NG 2) | 29.5
CCAUAACAGUGAGGAUAUCGUUGCGAUAAGUGACGAGAAGGCAUUCAUGUGAAAUAAACAUACAUGAGGAUCACCCAUGUUGUA [Omei SS(NG)1 B] (Eterna round: R96, puzzle: Same State NG 1) | 18.2
CUUUUUAAUGCAGGAUAUGAUCAACAUGAGGAUCACCCAUGUGGUGUUGUGAGUAAGGAGAGUGAUCAGAAGGGCAUCUUCUCA [SS-NG2-LRO05] (Eterna round: R96, puzzle: Same State NG 2) | 301

Count: 2. Required value per item: apparent KD of MS2 coat protein.
1. UUCCCAUCGGGAGGAUAUGGAACCUUAUUGGUUCUAGAAGGUCCAACAUGAGGAUCACCCAUGUGGGAGUGGUCUAAUGACCAC [SS NG10LRO02] (Eterna round: R96, puzzle: Same State NG 1)
2. ACAUGAGGGUGAGGAUAUUGGAACUCACCUGACAUGAGGAUCACCCAUGUUCAAUGAGGAUCACCCAAGAAGGCACGUUGUGGA [Same State NG2 S3] (Eterna round: R96, puzzle: Same State NG 2)

[117, 29.2]

Quick one: give me apparent KD of MS2 coat protein for each item below, same order please.
1. AGCUAUUAAUCAGGAUAUGGUCACAUGAGGAUCACCCAUGUAUAGAUGAUUGAAUGUGGUCUACACUAGAAGGGAUUGCUAACA [SameState NG2 #58] (Eterna round: R96, puzzle: Same State NG 2)
2. GUAGCAUACCGAGGAUAUUCAUAACAUGAGGAUCACCCAUGUAUUAGGCCACAUUAGUGGCCUUGGGAGAAGGCGGAAUGCUAC [Xeonanis - 20 Mod45] (Eterna round: R96, puzzle: Same State NG 2)
3. GAAACAUGACGAGGAUAUGGUACAUGAGGAUCACCCAUGUAUGUACCACGACGCGUACGUCGAAUCCAGAAGGCGUCGUGAAAG [Mat - Same State NG 2 - JL mod - D20] (Eterna round: R96, puzzle: Same State NG 2)
4. UGUUGUUACGCAGGAUAUGGUCACAUGAGGAUCACCCAUGUAUUGUCGAUGCUAUGUGGAUUUGAUCAGAAGGGCGGGUUAACA [SameState NG2 #100] (Eterna round: R96, puzzle: Same State NG 2)

[167, 12.1, 27.8, 63.8]

---

Test system: MS2 coat protein
Test: apparent KD of MS2 coat protein; designed switch direction (-1 OFF switch, 1 ON switch): -1; higher = weaker reporter binding
Details: Eterna round: R95; input ligand: FMN 200 uM
EXPERIMENTAL_READOUT: apparent KD of MS2 coat protein (nM)
Numbers only, in nM.

For each of the sequences below, state apparent KD of MS2 coat protein.
1. GAUAAAGGGCAGGAUAUGGCUGGAAAAUAUCCGCCAGAAGGGCCCACAUGAGGAUCACCCAUGUGUGGUCCGCG [Lere] (puzzle: Exclusion 6)
2. GGAAUACAUGAGGAUCACCCAUGUAAGGAUAUGCUGAAUAACACGGAAUUAACGUGCAGCAGAAGGUACAAAUG [Mat - Mod of my Eli Mod D44] (puzzle: Exclusion 1)
3. ACUCGUAACUAGGAUAUCCGAAAUAAACGAGGAGGAGAAGGAGUUACAUGAGGAUCACCCAUGUGAUAUAAAGA [Edtisoed] (puzzle: Exclusion 6)
4. CUUCACCCACCAAAGCUCACCCACAUACCUGCUCUGGUGACAUGAGGAUCACCCAUGUUUUUUGCCCGUCUUAUCUU [Leso] (puzzle: Sensor v3, turn-off variant 2)
5. AGGAAUGAAGGAUAUACAUGAGGAUCACCCAUGUAAAAGGAAAGAGGUGAUGGAGAUAGUAGAAGGUCAAGAAG [JR_Exclusion3_Sub004] (puzzle: Exclusion 3)

52.3
105
47
40.7
94.2

Dear colleague, could you send me apparent KD of MS2 coat protein for each of the items below? Thanks.
1. AAAAAGUGAGGAUAUGCAUAAGGACCCGGGAGGGAAAUAAAACAUGAGGAUCACCCAUGUAGAAGGCGCAAAAA [Exclss2-II] (puzzle: Exclusion 2)
2. UUGGAGAUAGGAUAUACGAGGAGAGUAGAGGGAAGGUGAGGACAUGAGGAUCACCCAUGUAGAAGGAUCAGGAG [JR_Exclu2_Sub067] (puzzle: Exclusion 2)
3. UUGGAUGUUGAGGAUAUGCUUUUUUUUAUUAUAGCAGAAGGCGAUACAUGAGGAUCACCCAUGUUCAUGGCUUU [JR_E6_Sub099] (puzzle: Exclusion 6)
4. ACAAGCUUUAGGCGUGUGAACAUGAGGAUCACCCAUGUAUUUUUGGUUAGGAGUUCUGUAAGGGAUGCUCGUCUUAU [JR_SWV3TOV1_Sub091] (puzzle: Sensor v3, turn-off variant 1)

[17.2, 34.8, 14.5, 42.2]

I need apparent KD of MS2 coat protein for every entry listed below, if you could help.
1. AGUAACCGUCACGAAAGUGAUGGUUACACAAGCAAAUGUACAUGAGGAUCACCCAUGUCCUCAUUUGCUCGUCUUGU [Sensor 3 - 48] (puzzle: Sensor v3, turn-off variant 2)
2. ACAAGCUUAAAAGGUGAUAACAUGAGGAUCACCCAUGUUCGUCUUAUAAAGAUCCUAUGUCGAAAGACAUAGGAUCA [Sensor 3, v1 - 68] (puzzle: Sensor v3, turn-off variant 1)

1. 101
2. 18.8
